These entries and their values trace back to the nanobody polyreactivity screen of Harvey et al. (2022).

test: yeast display, Sf9 membrane polyspecificity reagent, FACS + sequencing; frameworks hold sequencing errors
readout.kind: polyreactivity (PSR sort gate)

{"columns": ["residue.sequence", "readout.kind", "measurement"],
 "data": [
  ["QVQLVESGGGVVQARGSLRLSCAASGRIFYGYAMGWYRQAPGKERELVAAITRSSSTYYADSVKGRFTISRDNAKNTVYLQMNSLKPEDTAVYYCAAASRRSGASSWYDYWGQGTQVTVSS", "polyreactivity (PSR sort gate)", "high polyreactivity"],
  ["QVQLVESGGGLVQAGGSLRLSCAASGRTYGYAMGWYRQAPGKERELVARNTWRGGSTSYADSVKGRFTISRDNAKNTVYLQMNSLKPEDTAVYYCAATYGTGRRSKYGYWGQGTQVTVSS", "polyreactivity (PSR sort gate)", "high polyreactivity"]
]}

----------
assay: yeast display, Sf9 membrane polyspecificity reagent, FACS + sequencing; frameworks hold sequencing errors
readout.kind: polyreactivity (PSR sort gate)

{"columns": ["residue.sequence", "readout.kind", "measurement"],
 "data": [
  ["QVQLVESGGGLVQAGGSLRLSCAASASTFGAYAMGWYRQAPGKERELVAAITESGDNTYYADSVKGRFTISRDNAKNTVYLQMNSLKPEDTAVFYCAADDGYSTYEYWGQGTQVTVSS", "polyreactivity (PSR sort gate)", "low polyreactivity"],
  ["QVQLVESGGGLVQAGGSLRLSCAASGGTFGINDMGWYRQAPGKERDLVAAISWSGGDTYYADSVKGRFTISRDNAKNTVYLQRNSLKPEDTAVYYCAADYHYTKSMYYWGQGTQVSVSS", "polyreactivity (PSR sort gate)", "low polyreactivity"],
  ["QVQLVESGGGLVQAGGSLRLSCAASGRTFVSTAMGWYRQAPGKERELVAGMSQRGGSTYYADSVKGRFTISRDNAKNTVYLHMNSMKPEDTAVYYCNAVSRAYFYGAYGPYTRFNYWGQGTQVTVSS", "polyreactivity (PSR sort gate)", "high polyreactivity"],
  ["QVQLEESGGCLVQAGGSLRLSCAASGSTFVYNVMGWYRQAPGKERELVAAITSGVRTYYADSVKGRFTISRDNAKNTVYLQMNSLKPEDTAGYYCATGWRYAKYYYWGQGTQVTVSS", "polyreactivity (PSR sort gate)", "high polyreactivity"],
  ["QVQLVESGGGLVQAGGSLRLSCAASGRIFVIYAMGWYRQAPGKERELVAVINDDGSTNYADSVKGRFTISRDNAKNTVYLQMNSLKPEDSAVYYCNAVYYSYRYGHDYWGQGTQVTVSS", "polyreactivity (PSR sort gate)", "low polyreactivity"]
]}

----------
assay: yeast display, Sf9 membrane polyspecificity reagent, FACS + sequencing; frameworks hold sequencing errors
readout.kind: polyreactivity (PSR sort gate)

{"columns": ["residue.sequence", "readout.kind", "measurement"],
 "data": [
  ["QVQLVESGGGLVQAGGSLRLSCAASGGTFAVYAMGWYRQAPGKEREWVAAIDSGGRTNYADSVKGRFTISRDNAKNTVYLQMNSLKPEDTAVYYCAADGGGQYVRYDYWGQGTQVTVSS", "polyreactivity (PSR sort gate)", "high polyreactivity"],
  ["QVQLVESGGGLVQAGGSLRLSCAASGFIFNLYAMGWYRQAPGKERELVAAISSGGGTSYADSVKGRFTISRDNAKNTVYLQMNSLKPEDTAVYYCAAGYKRRYYWKGYTRYDYWGQGTQVTVSS", "polyreactivity (PSR sort gate)", "high polyreactivity"],
  ["QVQLVESGGGLVHAGGSLRLSCAASGRTFYAYAMGWYRQAPGKERELVAAISWRGGDTYYADSVKGRFTISRDNAKNTVYLQMNSVKPEVTAVYFCCADVYRYSVYLIRNPMDYWGQGTQVTVSS", "polyreactivity (PSR sort gate)", "low polyreactivity"],
  ["QVQLVESGGGLVQAGGSLRLSCAASGFTFSLYDMGWYRQAPGKERELVADINGSGGSTYYSDSVKGRFTISRDNAKYTVYFQMNSLKPEDTAVYYCAAGPPSRWWYFVDYGYWGQGTQVTVSS", "polyreactivity (PSR sort gate)", "high polyreactivity"],
  ["QVQLVESGGGLVQAGGSLRLSCAASGSIFSPYAMGWYRQAPGKERELVAAISFRASTTYYADSVKGRFTISRDNAKNTVYLQMNSLKPEDTAVYYCSASALYSWFWGLYDYWGQGTQVTVSS", "polyreactivity (PSR sort gate)", "low polyreactivity"]
]}
